# Assay summary: Cmax in BALB/c mouse at 10 mg/kg,po measured upto 24 hrs by LC-MS/MS analysis
# Format: ADME, organism-based
# Set-up: time < 24 hrs, dose 10 mg/kg, route po
# Conditions: in vivo
Reported Cmax by item:
Output spec: scalar in ng/mL, unitless text.

INSERT INTO results (record_smiles, measured_quantity, val) VALUES
  ('Cn1c(C(=O)N2CCN(Cc3ccc(OCC(F)(F)F)cc3)CC2)cc2ccc(Oc3cnc(-c4nc(-c5ccc(F)cc5)no4)cn3)cc21', 'Cmax', 669);

Consider now this further compound.
Exam item: For COc1ccc(-c2noc(-c3cnc(Oc4ccc5cc(C(=O)N6CCN(Cc7ccc(OCC(F)(F)F)cc7)CC6)n(C)c5c4)cn3)n2)cc1 , what is its reported Cmax?
Marked response: 1810

* * *

# Assay summary: Microsomal stability in rat liver microsomes assessed as compound remaining incubated for 60 mins in presence of NADPH by LC-MS/MS analysis
# Type: ADME, Microsome
# Conditions: read-out: Stability
Measured quantity: remaining at 1 h (%)
Output spec: scalar in %, unitless text.

INSERT INTO assay_data (record_smiles, val) VALUES
  ('COc1ccc(-c2noc(-c3cnc(Oc4ccc5cc(C(=O)N6CCN(Cc7ccc(OCC(F)(F)F)cc7)CC6)n(C)c5c4)cn3)n2)cc1', 60.5);

Exam item: For Cn1c(C(=O)N2CCN(Cc3ccc(OCC(F)(F)F)cc3)CC2)cc2ccc(Oc3cnc(-c4nc(-c5ccc(F)cc5)no4)cn3)cc21 , what is its reported remaining at 1 h?
Marked response: 55.4

* * *

# Test system: Signal transducer and activator of transcription 3 (Homo sapiens, UniProt P40763)
# Sequence (P40763 whole entry): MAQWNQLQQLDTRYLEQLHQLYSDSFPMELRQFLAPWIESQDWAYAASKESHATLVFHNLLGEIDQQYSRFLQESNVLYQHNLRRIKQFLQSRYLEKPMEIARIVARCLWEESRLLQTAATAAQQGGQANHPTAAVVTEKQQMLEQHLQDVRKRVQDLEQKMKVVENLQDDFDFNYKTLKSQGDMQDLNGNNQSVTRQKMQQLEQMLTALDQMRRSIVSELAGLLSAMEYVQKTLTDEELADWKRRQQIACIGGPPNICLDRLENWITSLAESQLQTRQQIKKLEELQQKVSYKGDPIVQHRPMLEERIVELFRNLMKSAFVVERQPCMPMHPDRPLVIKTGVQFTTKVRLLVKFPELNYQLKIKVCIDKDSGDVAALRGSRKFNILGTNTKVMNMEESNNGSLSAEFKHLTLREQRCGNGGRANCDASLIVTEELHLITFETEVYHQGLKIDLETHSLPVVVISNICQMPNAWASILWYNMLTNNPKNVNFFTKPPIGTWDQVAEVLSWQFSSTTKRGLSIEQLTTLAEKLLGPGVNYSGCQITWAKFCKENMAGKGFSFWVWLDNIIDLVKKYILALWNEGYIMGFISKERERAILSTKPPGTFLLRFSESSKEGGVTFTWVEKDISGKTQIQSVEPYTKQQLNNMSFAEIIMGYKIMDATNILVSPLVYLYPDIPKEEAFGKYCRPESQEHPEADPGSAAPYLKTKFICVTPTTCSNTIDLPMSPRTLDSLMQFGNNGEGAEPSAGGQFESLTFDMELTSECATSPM
# Assay summary: Inhibition of STAT3 in human HEK293T cells assessed as inhibition of IL-6 stimulated STAT3 phosphorylation by dual-luciferase reporter assay
Measured quantity: IC50 (nM)
Output spec: scalar in nM, unitless text.

INSERT INTO measurements (record_smiles, test_system, measure_unit, val) VALUES
  ('Cn1c(C(=O)N2CCN(CCc3ccccc3)CC2)cc2ccc(Oc3cnc(-c4nc(-c5ccc(C(F)(F)F)cc5)no4)cn3)cc21', 'Signal transducer and activator of transcription 3 (Homo sapiens, UniProt P40763)', 'nM', 595),
  ('CCN1CCN(C(=O)c2cc3ccc(Oc4cnc(-c5nc(-c6ccc(C(F)(F)F)cc6)no5)cn4)cc3n2C)CC1', 'Signal transducer and activator of transcription 3 (Homo sapiens, UniProt P40763)', 'nM', 1110);

Consider now this further compound.
Exam item: For COc1ccc(CN2CCN(C(=O)c3cc4ccc(Oc5cnc(-c6nc(-c7ccc(C(F)(F)F)cc7)no6)cn5)cc4n3C)CC2)cc1 , what is its reported IC50?
Marked response: 63.6

* * *

# Test system: Cytochrome P450 1A2 (Homo sapiens, UniProt P05177)
# Sequence (P05177 whole entry): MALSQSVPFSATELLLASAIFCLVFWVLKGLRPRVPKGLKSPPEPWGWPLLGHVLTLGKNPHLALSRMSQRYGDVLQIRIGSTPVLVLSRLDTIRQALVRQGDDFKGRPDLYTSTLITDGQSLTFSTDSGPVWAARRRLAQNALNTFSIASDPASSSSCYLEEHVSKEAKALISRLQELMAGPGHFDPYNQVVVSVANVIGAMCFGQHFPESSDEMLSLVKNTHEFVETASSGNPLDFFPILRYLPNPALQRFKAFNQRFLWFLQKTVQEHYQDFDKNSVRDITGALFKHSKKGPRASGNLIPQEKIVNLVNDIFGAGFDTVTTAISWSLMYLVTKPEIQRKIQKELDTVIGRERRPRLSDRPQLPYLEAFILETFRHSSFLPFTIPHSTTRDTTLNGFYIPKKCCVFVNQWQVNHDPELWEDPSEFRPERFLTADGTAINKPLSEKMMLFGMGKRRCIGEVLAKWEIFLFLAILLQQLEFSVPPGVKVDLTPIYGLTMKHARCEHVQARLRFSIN
Measured quantity: IC50

Exam item: For COc1ccc(-c2noc(-c3cnc(Oc4ccc5cc(C(=O)N6CCN(Cc7ccc(OCC(F)(F)F)cc7)CC6)n(C)c5c4)cn3)n2)cc1 , what is its reported IC50?
Marked response: > 50 µM
